Measured pIC50 of individual entries
assayed-target: muscarinic receptors (M1-site, pirenzepine sensitive site) (Rattus norvegicus, UniProt P08482)
Construct: Fresh cortex (0.1-1 9) from male Wistar rats (150-200 g) is homogenized; from tissue; host or cells: rat cerebral cortex membranes
Sequence (P08482 1-460): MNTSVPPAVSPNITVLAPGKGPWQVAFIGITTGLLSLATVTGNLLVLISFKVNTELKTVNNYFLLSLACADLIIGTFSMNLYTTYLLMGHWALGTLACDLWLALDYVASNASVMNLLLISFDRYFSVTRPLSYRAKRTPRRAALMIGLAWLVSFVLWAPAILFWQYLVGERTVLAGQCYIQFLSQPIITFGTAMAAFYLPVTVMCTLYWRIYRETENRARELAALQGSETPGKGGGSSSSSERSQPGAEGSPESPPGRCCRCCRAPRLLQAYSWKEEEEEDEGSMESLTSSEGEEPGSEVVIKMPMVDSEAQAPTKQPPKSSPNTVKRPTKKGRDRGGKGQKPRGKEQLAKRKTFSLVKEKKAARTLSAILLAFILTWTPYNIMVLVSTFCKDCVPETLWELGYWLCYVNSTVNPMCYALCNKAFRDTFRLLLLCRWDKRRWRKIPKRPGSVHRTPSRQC
assay-overview: Inhibition of ^3HPRZ (pirenzepine) binding to rat cerebral cortex membranes
Design: species or system male Wistar rats
test-conditions: 1.0 nM ^3HPRZ, 60 min at 20°C, read-out: ^3HPRZ IC50
pIC50: −log10 of the molar value.
observable: pIC50

[[record]]
compound = "CC(C)CCCSc1nsnc1C1CC2CCC1NC2 (stereo not drawn) [Compound 18]"
observable = "pIC50"
quantitative_readout = 7.89

[[record]]
compound = "CCCCCCSc1nsnc1C1CC2CCC1NC2 (stereo not drawn) [Compound 28]"
observable = "pIC50"
quantitative_readout = 7.21

[[record]]
compound = "N#Cc1ccc(CSc2nsnc2C2CC3CCC2NC3)s1 (stereo not drawn) [Compound 25]"
observable = "pIC50"
quantitative_readout = 8.21

[[record]]
compound = "CCCCOc1nsnc1C1CC2CCC1NC2 (single isomer, unassigned) [Compound 5]"
observable = "pIC50"
quantitative_readout = 6.86

[[record]]
compound = "CCCSc1nsnc1C1CC2CCC1NC2 (stereo not drawn) [Compound 11]"
observable = "pIC50"
quantitative_readout = 7.89

[[record]]
compound = "CCCCCOc1nsnc1C1CC2CCC1NC2 (stereo not drawn) [Compound 31]"
observable = "pIC50"
quantitative_readout = 7.10

[[record]]
compound = "CSc1nsnc1C1CC2CCC1NC2 (stereo not drawn) [Compound 19]"
observable = "pIC50"
quantitative_readout = 6.89

[[record]]
compound = "CCCCCOc1nsnc1C1CC2CCC1NC2 (stereo not drawn) [Compound 30]"
observable = "pIC50"
quantitative_readout = 7.82

[[record]]
compound = "CCCCOc1nsnc1C1CC2CCC1NC2 (single isomer, unassigned) [Compound 4]"
observable = "pIC50"
quantitative_readout = 7.77

